Test system: KRAS PDC multicell spheroid viability;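 note: drug exposure lasted seven days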
Assay: Anticancer human tumor 521955-158-R6-J3-PDC patient-derived pancreatic carcinoma cell line growth inhibition [KRAS2]; active = viability on the fitted dose curve at most 10% of control; inactive = the rest
Details: second compound 3.16 µM; first compound 0.1 µM
Pick from yes = active, no = inactive when you respond.

Observe how each entry below is paired with its result.
Cn1ncnc1[C@H]1c2n[nH]c(=O)c3cc(F)cc(c23)N[C@@H]1c1ccc(F)cc1 + COc1cc2nc(C)nc(NC(C)c3cc(N)cc(C(F)(F)F)c3)c2cc1OC1CCOC1 | no
CC1(C)CCC(CN2CCN(c3ccc(C(=O)NS(=O)(=O)c4ccc(NCC5CCOCC5)c([N+](=O)[O-])c4)c(Oc4cnc5[nH]ccc5c4)c3)CC2)=C(c2ccc(Cl)cc2)C1 + CNCc1ccccc1-c1csc(C(C)Nc2nc(C)nc3cc(OC)c(OC)cc23)c1 | yes
CC(=O)OC12COC1CC(O)C1(C)C(=O)C(O)C3=C(C)C(OC(=O)C(O)C(NC(=O)OC(C)(C)C)c4ccccc4)CC(O)(C(OC(=O)c4ccccc4)C21)C3(C)C (centres undefined) + CC1OCC2(CCN(c3cnc(Sc4ccnc(N)c4Cl)c(N)n3)CC2)C1N | no
COc1cc(Nc2ncc3c(n2)-c2ccc(Cl)cc2C(c2c(F)cccc2OC)=NC3)ccc1C(=O)O + CC1OCC2(CCN(c3cnc(Sc4ccnc(N)c4Cl)c(N)n3)CC2)C1N | no
Cn1ncnc1[C@H]1c2n[nH]c(=O)c3cc(F)cc(c23)N[C@@H]1c1ccc(F)cc1 + C=CC(=O)N1CCN(c2nc(OCC3CCCN3C)nc3c2CCN(c2cccc4cccc(C)c24)C3)CC1CC#N | no

Task: What did the test return for COC(=O)c1ccc2c(C(=Nc3ccc(N(C)C(=O)CN4CCN(C)CC4)cc3)c3ccccc3)c(O)[nH]c2c1 + CC1OCC2(CCN(c3cnc(Sc4ccnc(N)c4Cl)c(N)n3)CC2)C1N ?
Result: no

Task: Can you look up the reported call for CC(=O)OC12COC1CC(O)C1(C)C(=O)C(O)C3=C(C)C(OC(=O)C(O)C(NC(=O)OC(C)(C)C)c4ccccc4)CC(O)(C(OC(=O)c4ccccc4)C21)C3(C)C (centres undefined) + C=CC(=O)N1CCN(c2nc(OCC3CCCN3C)nc3c2CCN(c2cccc4cccc(C)c24)C3)CC1CC#N for me?
Result: no

Task: Dear all, I need the recorded test outcome for CCN1CCN(Cc2ccc(Nc3ncc(F)c(-c4cc(F)c5nc(C)n(C(C)C)c5c4)n3)nc2)CC1 + C=CC(=O)N1CCN(c2nc(OCC3CCCN3C)nc3c2CCN(c2cccc4cccc(C)c24)C3)CC1CC#N , thank you.
Result: no

Task: Which outcome did this test record for the molecule CC(=O)OC12COC1CC(O)C1(C)C(=O)C(O)C3=C(C)C(OC(=O)C(O)C(NC(=O)OC(C)(C)C)c4ccccc4)CC(O)(C(OC(=O)c4ccccc4)C21)C3(C)C (centres undefined) + CNCc1ccccc1-c1csc(C(C)Nc2nc(C)nc3cc(OC)c(OC)cc23)c1 ?
Result: no

Task: # outcome recorded in this test, key = CC1COCCN1c1cc(-c2ccnn2C)c2ccnc(-c3ccn[nH]3)c2n1 (centres undefined) + COc1cc2nc(C)nc(NC(C)c3cc(N)cc(C(F)(F)F)c3)c2cc1OC1CCOC1
Result: no

Task: # fetch the recorded call for CCN1CCN(Cc2ccc(Nc3ncc(F)c(-c4cc(F)c5nc(C)n(C(C)C)c5c4)n3)nc2)CC1 + C=CC(=O)N1CCN(c2nc(=O)n(-c3c(C)ccnc3C(C)C)c3nc(-c4c(O)cccc4F)c(F)cc23)C(C)C1 here
Result: no

Task: I'd appreciate the recorded outcome for CC(C)NCC(C(=O)N1CCN(c2ncnc3c2C(C)CC3O)CC1)c1ccc(Cl)cc1 (centres undefined) + CNCc1ccccc1-c1csc(C(C)Nc2nc(C)nc3cc(OC)c(OC)cc23)c1 from this test.
Result: yes

Task: For this molecule, state the assay outcome: CN(C)C/C=C/C(=O)Nc1cc2c(Nc3ccc(F)c(Cl)c3)ncnc2cc1O[C@H]1CCOC1 + C=CC(=O)N1CCN(c2nc(OCC3CCCN3C)nc3c2CCN(c2cccc4cccc(C)c24)C3)CC1CC#N
Result: no
